spectral intensity of the compound in the SEC spin column filtrate (protein fraction) values for the compounds below.
subjectOfTest: FLJ39196 clone-derived protein (human neurocalcin δ) (Homo sapiens)
Construct: A human full-length cDNA clone was expressed as a protein with an N-terminal His tag; His tag (N); made in house; host or cells: Escherichia coli BL21star(DE3)pLysS (pDEST17 Gateway expression plasmid)
assayProcedure: SEC/MS interaction analysis (size exclusion spin column and mass analysis) with FLJ39196 clone-derived protein
Type: binding
cond: protein 0 μM (protein-free reference), compound 100 μM
measuredQuantity: spectral intensity of the compound in the SEC spin column filtrate (protein fraction)

querySmiles: CCc1cc2c(s1)N(C)C(=O)CN=C2c1ccccc1Cl
valueObserved: 251469420

querySmiles: Cc1cc(-c2ccccc2)nnc1NCCN1CCOCC1
valueObserved: 530918568

querySmiles: CN1CCN(CCCN2c3ccccc3Sc3ccc(C(F)(F)F)cc32)CC1
valueObserved: 204390563

querySmiles: CN1CCC(=C2c3ccccc3Sc3ccccc32)CC1
valueObserved: 58800844

====

# Lookup of reported spectral intensity of the compound in the SEC spin column filtrate (protein fraction) keyed by entry
subjectOfTest: FLJ39196 clone-derived protein (human neurocalcin δ) (Homo sapiens, UniProt P61601)
Construct: A human full-length cDNA clone was expressed as a protein with an N-terminal His tag; His tag (N); made in house; host or cells: Escherichia coli BL21star(DE3)pLysS (pDEST17 Gateway expression plasmid)
assayProcedure: SEC/MS interaction analysis (size exclusion spin column and mass analysis) with FLJ39196 clone-derived protein
Assay type: binding
cond: protein 47.5 μM, compound 100 μM
measuredQuantity: spectral intensity of the compound in the SEC spin column filtrate (protein fraction)

compound: NS(=O)(=O)c1cc2c(cc1Cl)N=C(CSCc1ccccc1)NS2(=O)=O [Benzthiazide]
valueObserved: 16067473

compound: CC(O)(CS(=O)(=O)c1ccc(F)cc1)C(=O)Nc1ccc(C#N)c(C(F)(F)F)c1 (stereo not drawn) [Bicaltamide]
valueObserved: 24933110

compound: CN1CCN(CCCN2c3ccccc3Sc3ccc(C(F)(F)F)cc32)CC1
valueObserved: 5846308

compound: O=C1CN=C(c2ccccc2)c2cc(Cl)ccc2N1CC1CC1
valueObserved: 264065408

compound: CN(C)CC/C=C1/c2ccccc2Sc2ccc(Cl)cc21
valueObserved: 207034486

compound: CCc1cc2c(s1)N(C)C(=O)CN=C2c1ccccc1Cl
valueObserved: 657940514

compound: C[C@]12Cc3c[nH]nc3C[C@@H]1CC[C@@H]1[C@@H]2CC[C@@]2(C)[C@H]1CC[C@]2(C)O
valueObserved: 619287498

compound: Cc1cc(-c2ccccc2)nnc1NCCN1CCOCC1
valueObserved: 427303459

compound: CCCCCCCCNC(C)C(O)c1ccc(SC(C)C)cc1 (stereo not drawn)
valueObserved: 507388292

compound: Clc1ccc(C(OCCN2CCCCC2)c2ccccc2)cc1 (stereo not drawn)
valueObserved: 338617522

compound: OCCN1CCN(CC/C=C2/c3ccccc3Sc3ccc(C(F)(F)F)cc32)CC1 [Flupentixol cis-(Z)]
valueObserved: 1301876646

compound: CC(C)COCC(CN(Cc1ccccc1)c1ccccc1)N1CCCC1 (stereo not drawn)
valueObserved: 1156825217

====

spectral intensity of the compound in the SEC spin column filtrate (protein fraction) for assorted compounds
subjectOfTest: FLJ39196 clone-derived protein (human neurocalcin δ) (Homo sapiens, UniProt P61601)
Construct: A human full-length cDNA clone was expressed as a protein with an N-terminal His tag; His tag (N); made in house; host or cells: Escherichia coli BL21star(DE3)pLysS (pDEST17 Gateway expression plasmid)
assayProcedure: SEC/MS interaction analysis (size exclusion spin column and mass analysis) with FLJ39196 clone-derived protein
Type: binding
cond: protein 23.75 μM, compound 250 μM
Counter-ions that a name gives are not always drawn.
measuredQuantity: spectral intensity of the compound in the SEC spin column filtrate (protein fraction)

compound: NS(=O)(=O)c1cc2c(cc1Cl)N=C(CSCc1ccccc1)NS2(=O)=O [Benzthiazide]
valueObserved: 25333199
//
compound: CC(C)/N=c1\cc2n(-c3ccc(Cl)cc3)c3ccccc3nc-2cc1Nc1ccc(Cl)cc1
valueObserved: 380425425
//
compound: CC(NCCC(c1ccccc1)c1ccccc1)c1ccccc1 (centres unmarked)
valueObserved: 396979100
//
compound: CN1CCN(CCCN2c3ccccc3Sc3ccc(C(F)(F)F)cc32)CC1
valueObserved: 1292987653
//
compound: O=C(c1ccc(OCCN2CCCCC2)cc1)c1c(-c2ccc(O)cc2)sc2cc(O)ccc12 [Raloxifene hydrochloride]
valueObserved: 157539770
